molecular target: benzodiazepine receptors; assay: displacement of specific binding of 3H flunitrazepam in vitro (rat cerebral membrane suspension); settings: 50% displacement of specific binding of 3H flunitrazepam (1.0 nM, 0° C.), rat cerebrum
// boundary case: IC50 (in vitro) equal to 0.9 ng/mL maps to not met; strictly smaller maps to met

# check: IC50 (in vitro) < 0.9 ng/mL for CCOC(=O)c1ncc2[nH]c3cccc(OCc4ccc([N+](=O)[O-])cc4)c3c2c1COC
met

# check: IC50 (in vitro) < 0.9 ng/mL for CCOC(=O)c1ncc2[nH]c3cccc(OCc4ccc(Cl)c(Cl)c4)c3c2c1COC
not met

# check: IC50 (in vitro) < 0.9 ng/mL for CCOC(=O)c1ncc2[nH]c3cccc(OCc4cccc(F)c4)c3c2c1COC
met

# check: IC50 (in vitro) < 0.9 ng/mL for CCOC(=O)c1ncc2[nH]c3cccc(OCc4cccc(C(F)(F)F)c4)c3c2c1COC
not met

# check: IC50 (in vitro) < 0.9 ng/mL for CCOC(=O)c1ncc2[nH]c3cccc(OC(C)c4ccccc4)c3c2c1COC (centres unmarked)
not met

# check: IC50 (in vitro) < 0.9 ng/mL for CCOC(=O)c1ncc2[nH]c3cccc(OCc4ccccc4)c3c2c1COC
not met

# check: IC50 (in vitro) < 0.9 ng/mL for CCOC(=O)c1ncc2[nH]c3cccc(OCc4ccccc4F)c3c2c1COC
met

# check: IC50 (in vitro) < 0.9 ng/mL for CCOC(=O)c1ncc2[nH]c3cccc(OC(C)c4cccc(Cl)c4)c3c2c1COC (centres unmarked)
not met

# check: IC50 (in vitro) < 0.9 ng/mL for CCOC(=O)c1ncc2[nH]c3cccc(OCCCc4ccccc4)c3c2c1COC
not met

# check: IC50 (in vitro) < 0.9 ng/mL for CCOC(=O)c1ncc2[nH]c3cccc(OCCc4ccccc4)c3c2c1COC
met

# check: IC50 (in vitro) < 0.9 ng/mL for CCOC(=O)c1ncc2[nH]c3cccc(OCc4cccc(Cl)c4)c3c2c1COC
not met

# check: IC50 (in vitro) < 0.9 ng/mL for CCOC(=O)c1ncc2[nH]c3cccc(OCc4ccc(F)cc4)c3c2c1COC
met

# check: IC50 (in vitro) < 0.9 ng/mL for CCOC(=O)c1ncc2[nH]c3cccc(OCc4cccc(Br)c4)c3c2c1COC
met

# check: IC50 (in vitro) < 0.9 ng/mL for CCOC(=O)c1ncc2[nH]c3cccc(OCc4cccc(OC)c4)c3c2c1COC
met

# check: IC50 (in vitro) < 0.9 ng/mL for CCOC(=O)c1ncc2[nH]c3cccc(OCc4ccc(C)c(C)c4)c3c2c1COC
not met
